The values you see were collected from patent US20260250318A1.

Readings of Fold enrichment over AAV9 in the brain of Mice (BALB/c) for the listed sequences
# System: brain
# PROCEDURE_SUMMARY: NGS fold enrichment of synthetic library (passage 3) in BALB/c mice, first cross-species screen
# Assay type: in vivo
# COND: synthetic library passage 3, intravenous, RNA NGS, brain of BALB/c mice, relative to wild-type AAV9
Quick reminder: number only, in fold, skip the unit.

Recorded Fold enrichment over AAV9 in the brain of Mice (BALB/c), per entry:
[[record]]
sequence_record = "GSGQNQHHSVSQQT"
readout_number = 0.334

[[record]]
sequence_record = "GSLKPTTLGQNQQT"
readout_number = 0.220

[[record]]
sequence_record = "GSGQNQQALGSQRT"
readout_number = 0.562

[[record]]
sequence_record = "GSGSDMSSWQNQQT"
readout_number = 0.303


Just so you know, measured Fold enrichment over AAV9 in the brain of Mice (BALB/c) for GSSPAPNSGQNQQT came out at 0.368

For this sequence ( GSGQGPQERGNQQT ), measured Fold enrichment over AAV9 in the brain of Mice (BALB/c) is 0.313

Given item GSGHSPLPQQNQQT , the value recorded as its Fold enrichment over AAV9 in the brain of Mice (BALB/c) is 0.247

---

Parameter Fold enrichment over AAV9 in the brain of Mice (BALB/c): see the listing below.
# Tested on: brain
# PROCEDURE_SUMMARY: NGS fold enrichment of synthetic library (passage 3) in BALB/c mice, first cross-species screen
# Format: in vivo
# COND: synthetic library passage 3, intravenous, RNA from brain of BALB/c mice, NGS, relative to wild-type AAV9
Express your answer in fold, writing the number without its unit.

[[record]]
sequence_record = "GSGQRRELSQNQQT"
readout_number = 0.396

[[record]]
sequence_record = "GSLYGQSLGQNQQT"
readout_number = 0.843

[[record]]
sequence_record = "GSGQNQQTALYNNT"
readout_number = 0.726

[[record]]
sequence_record = "GSGQNLHSGLPQQT"
readout_number = 0.592

[[record]]
sequence_record = "GSIAMTSHGQNQQT"
readout_number = 0.438

[[record]]
sequence_record = "GSSVGVPSGQNQQT"
readout_number = 1.157

[[record]]
sequence_record = "GSGQRGSLTENQQT"
readout_number = 0.567

[[record]]
sequence_record = "GSDGKMHRGQNQQT"
readout_number = 0.776


According to the records, this sequence GSGTSGKTGKNQQT displays Fold enrichment over AAV9 in the brain of Mice (BALB/c) of 0.676

What the record says about GSGSKQNALQNQQT : Fold enrichment over AAV9 in the brain of Mice (BALB/c) is 0.594

Fold enrichment over AAV9 in the brain of Mice (BALB/c) measured on GSGQNQQSHLRTNT = 0.718

Data point: GSGQNQQGTGVSHT ; Fold enrichment over AAV9 in the brain of Mice (BALB/c) = 0.749

Lab book: Fold enrichment over AAV9 in the brain of Mice (BALB/c) of GSGVSTQLLQNQQT noted as 0.509

The measured Fold enrichment over AAV9 in the brain of Mice (BALB/c) associated with GSLHAGLSGQNQQT reads 0.936

// sample GSGQTRMPLANQQT , its Fold enrichment over AAV9 in the brain of Mice (BALB/c) was 0.273

Documented Fold enrichment over AAV9 in the brain of Mice (BALB/c) of GSGQYRSSSDNQQT : 0.409

Record summary for GFIFPKVSGQNQQT : reported Fold enrichment over AAV9 in the brain of Mice (BALB/c) = 0.692

get_value(item= GEKAVTSSGQNQQT , readout=Fold enrichment over AAV9 in the brain of Mice (BALB/c)) returns 0.327
